# Measurement setup: in DMAc, 283.15 K

{"Molecule smiles": "CC(C)Oc1ccc2c(=O)c(-c3ccccc3)coc2c1", "solubility (mole fraction)": 0.0454}

###

# Measurement setup: in toluene, 303.15 K
Endpoint label: solubility (mole fraction)

{"Molecule smiles": "CC(C)Oc1ccc2c(=O)c(-c3ccccc3)coc2c1", "Result": 0.0338}

###

# Measurement setup: in acetonitrile, 308.15 K

{"Molecule smiles": "CC(C)Oc1ccc2c(=O)c(-c3ccccc3)coc2c1", "solubility (mole fraction)": 0.0122}

###

# Measurement setup: in DMAc, 278.15 K

{"Molecule smiles": "CC(C)Oc1ccc2c(=O)c(-c3ccccc3)coc2c1", "solubility (mole fraction)": 0.0395}

###

# Measurement setup: in toluene, 323.15 K
Endpoint label: solubility (mole fraction)

{"Molecule smiles": "CC(C)Oc1ccc2c(=O)c(-c3ccccc3)coc2c1", "Endpoint label": "solubility (mole fraction)", "Result": 0.0802}

###

# Measurement setup: in acetone, 293.15 K

{"Molecule smiles": "CC(C)Oc1ccc2c(=O)c(-c3ccccc3)coc2c1", "solubility (mole fraction)": 0.0157}

###

# Measurement setup: in acetonitrile, 298.15 K

{"Molecule smiles": "CC(C)Oc1ccc2c(=O)c(-c3ccccc3)coc2c1", "solubility (mole fraction)": 0.00731}

###

# Measurement setup: in dichloromethane, 303.15 K
Endpoint label: solubility (mole fraction)

{"Molecule smiles": "CC(C)Oc1ccc2c(=O)c(-c3ccccc3)coc2c1", "Result": 0.108}

###

# Measurement setup: in n-pentanol, 318.15 K

{"Molecule smiles": "CC(C)Oc1ccc2c(=O)c(-c3ccccc3)coc2c1", "solubility (mole fraction)": 0.0165}

###

# Measurement setup: in toluene, 293.15 K

{"Molecule smiles": "CC(C)Oc1ccc2c(=O)c(-c3ccccc3)coc2c1", "solubility (mole fraction)": 0.022}

###

# Measurement setup: in methanol, 313.15 K

{"Molecule smiles": "CC(C)Oc1ccc2c(=O)c(-c3ccccc3)coc2c1", "solubility (mole fraction)": 0.00505}

###

# Measurement setup: in methanol, 288.15 K
Endpoint label: solubility (mole fraction)

{"Molecule smiles": "CC(C)Oc1ccc2c(=O)c(-c3ccccc3)coc2c1", "Endpoint label": "solubility (mole fraction)", "Result": 0.0015}

###

# Measurement setup: in ethanol, 283.15 K

{"Molecule smiles": "CC(C)Oc1ccc2c(=O)c(-c3ccccc3)coc2c1", "solubility (mole fraction)": 0.00141}

###

# Measurement setup: in DMAc, 298.15 K

{"Molecule smiles": "CC(C)Oc1ccc2c(=O)c(-c3ccccc3)coc2c1", "solubility (mole fraction)": 0.0721}

###

# Measurement setup: in n-butanol, 318.15 K
Endpoint label: solubility (mole fraction)

{"Molecule smiles": "CC(C)Oc1ccc2c(=O)c(-c3ccccc3)coc2c1", "Result": 0.0153}

###

# Measurement setup: in n-pentanol, 298.15 K
Endpoint label: solubility (mole fraction)

{"Molecule smiles": "CC(C)Oc1ccc2c(=O)c(-c3ccccc3)coc2c1", "Result": 0.00597}

###

# Measurement setup: in DMF, 318.15 K

{"Molecule smiles": "CC(C)Oc1ccc2c(=O)c(-c3ccccc3)coc2c1", "solubility (mole fraction)": 0.103}

###

# Measurement setup: in toluene, 318.15 K

{"Molecule smiles": "CC(C)Oc1ccc2c(=O)c(-c3ccccc3)coc2c1", "solubility (mole fraction)": 0.0638}

Cited source: BigSolDB 2.1
